- Tested on: OVCAR-3
- assay.protocol: Cytotoxicity against human OVCAR3 cells assessed as growth inhibition after 48 hrs by sulforhodamine B assay
- Assay type: functional
- setup.conditions: OVCAR-3, 48 h
recorded.endpoint: TGI (µM)

- smiles.entry: "COc1ccc(-c2cc(/C=C/C(=O)c3cc(OC)c(OC)c(OC)c3)[nH]n2)cc1OC"
  units.symbol: "µM"
  reported: 3.15
- smiles.entry: "COc1ccc(C(=O)/C=C/c2cc(-c3ccc(OC)c(OC)c3)n[nH]2)cc1OC"
  units.symbol: "µM"
  reported: 4.72
- smiles.entry: "COc1ccc(C(=O)/C=C/c2cc(-c3ccc4c(c3)OCO4)n[nH]2)cc1OC"
  units.symbol: "µM"
  reported: 4.61
- smiles.entry: "COc1cc(-c2cc(/C=C/C(=O)c3ccc(N)cc3)[nH]n2)cc(OC)c1OC"
  units.symbol: "µM"
  reported: 3.37
- smiles.entry: "COc1cc(C(=O)/C=C/c2cc(-c3cc(OC)c(OC)c(OC)c3)n[nH]2)cc(OC)c1OC"
  units.symbol: "µM"
  reported: 3.18

====

- Test system: Hs-578T
- assay.protocol: Cytotoxicity against human Hs 578T cells assessed as cell growth at 10 uM after 48 hrs by sulforhodamine B assay relative to control
- Type: functional
- setup.conditions: read-out: Activity
Quick rule: growth at 10 µM of at least 10% means fulfilled, below that means not fulfilled.

- smiles.entry: "COc1ccc(C(=O)/C=C/c2cc(-c3ccc4c(c3)OCO4)n[nH]2)cc1OC"
  classification: "not fulfilled"
- smiles.entry: "COc1ccc(C(=O)/C=C/c2cc(-c3cc(OC)c(OC)c(OC)c3)n[nH]2)cc1"
  classification: "fulfilled"
- smiles.entry: "COc1ccc(-c2cc(/C=C/C(=O)c3cc(OC)c(OC)c(OC)c3)[nH]n2)cc1OC"
  classification: "not fulfilled"
- smiles.entry: "COc1ccc(-c2cc(/C=C/C(=O)c3ccc(OC)c(OC)c3)[nH]n2)cc1"
  classification: "fulfilled"

====

- Test system: HOP-92
- assay.protocol: Cytotoxicity against human HOP92 cells assessed as growth inhibition after 48 hrs by sulforhodamine B assay
- Format: functional
- setup.conditions: HOP-92, 48 h
recorded.endpoint: TGI (µM)

- smiles.entry: "COc1cc(-c2cc(/C=C/C(=O)c3ccc(N)cc3)[nH]n2)cc(OC)c1OC"
  reported: 27.6
- smiles.entry: "COc1cc(-c2cc(/C=C/C(=O)c3ccc(Cl)c(Cl)c3)[nH]n2)cc(OC)c1OC"
  reported: 8.25
- smiles.entry: "COc1ccc(C(=O)/C=C/c2cc(-c3cc(OC)c(OC)c(OC)c3)n[nH]2)cc1"
  reported: 3.04
- smiles.entry: "COc1ccc(C(=O)/C=C/c2cc(-c3ccc4c(c3)OCO4)n[nH]2)cc1OC"
  reported: 8.11

====

- Test system: A498
- assay.protocol: Cytotoxicity against human A498 cells assessed as cell growth at 0.1 uM after 48 hrs by sulforhodamine B assay relative to control
- Assay type: functional
- setup.conditions: A498, 48 h, read-out: Activity

- smiles.entry: "COc1cc(-c2cc(/C=C/C(=O)c3ccc(N)cc3)[nH]n2)cc(OC)c1OC"
  growth at 0.1 µM / %: 85
- smiles.entry: "COc1cc(-c2cc(/C=C/C(=O)c3ccc(F)c(F)c3)[nH]n2)cc(OC)c1OC"
  growth at 0.1 µM / %: 96
- smiles.entry: "COc1ccc(-c2cc(/C=C/C(=O)c3cc(OC)c(OC)c(OC)c3)[nH]n2)cc1OC"
  growth at 0.1 µM / %: 89
- smiles.entry: "COc1cc(C(=O)/C=C/c2cc(-c3cc(OC)c(OC)c(OC)c3)n[nH]2)cc(OC)c1OC"
  growth at 0.1 µM / %: 90
